test system: TERT-RPE1; test: Cytotoxicity against hTERT-RPE1 cells assessed as reduction in cell viability at 50 uM after 72 hrs by sulforhodamine B assay; assay type: cell-based; settings: human, tert-rpe1, 72 h
observable: Activity

O=C(NCc1ccc(S(=O)(=O)Nc2ccccc2C(=O)O)cc1)c1cc(Cl)ccc1O = Non-Toxic
O=C(NCc1ccc(S(=O)(=O)Nc2ccccc2O)cc1)c1cc(Cl)ccc1O = Non-Toxic
O=C(NCc1ccc(S(=O)(=O)Nc2ccc(O)cc2)cc1)c1cc(Cl)ccc1O = Non-Toxic
Nc1ccc(NS(=O)(=O)c2ccc(CNC(=O)c3cc(Cl)ccc3O)cc2)cc1 = Non-Toxic

// switching to the query compound
Given the compound "O=C(NCc1ccc(S(=O)(=O)N2CCNCC2)cc1)c1cc(Cl)ccc1O" , what is its reported Activity? Non-Toxic

* * *

test: Selectivity index, ratio of CC50 for hTERT-RPE1 cells to GI50 for human MDA-MB-231 cells; format: toxicity; conditions: hTERT-RPE1 cells versus MDA-MB-231 cells, read-out: Selectivity Index
Hi! Just check whether selectivity ratio is below 6. Below gives TRUE, equal or above gives FALSE.

Known results for compounds:
Cc1ccc(NS(=O)(=O)c2ccc(CNC(=O)c3cc(Cl)ccc3O)cc2)c([N+](=O)[O-])c1 = FALSE
COc1ccc(NS(=O)(=O)c2ccc(CNC(=O)c3cc(Cl)ccc3O)cc2)cc1 = TRUE
O=C(NCc1ccc(S(=O)(=O)Nc2ccc(F)cc2)cc1)c1cc(Cl)ccc1O = TRUE
O=C(NCc1ccc(S(=O)(=O)NCc2ccccc2)cc1)c1cc(Cl)ccc1O = FALSE
Cc1ccc(NS(=O)(=O)c2ccc(CNC(=O)c3cc(Cl)ccc3O)cc2)cc1 = TRUE
O=C(NCc1ccc(S(=O)(=O)Nc2ccc(Cl)cc2)cc1)c1cc(Cl)ccc1O = FALSE

Given "O=C(NCc1ccc(S(=O)(=O)Nc2ccccc2)cc1)c1cc(Cl)ccc1O" , is recorded selectivity ratio strictly lower than 6? TRUE
